assay: Liver Microsome Stability Assay (mouse); details: mouse liver microsomes, with NADPH, 1.0 uM compound
Known Liver Microsome Stability (Multiple Species): Mouse - % Remaining after 30 min w/NADPH of a selection of compounds

Example compounds with recorded Liver Microsome Stability (Multiple Species): Mouse - % Remaining after 30 min w/NADPH:
[[record]]
compound = "CC(=O)N1CCC(Oc2ccc(N3CCC[C@@H]3c3csc(NC(=O)c4cccn4Cc4ccnc(F)c4)n3)cc2C#N)CC1"
result = "17.7%"

[[record]]
compound = "Cc1cc(/C=C/c2csc(NC(=O)c3cccn3Cc3ccnc(F)c3)n2)no1"
result = "3.15%"

[[record]]
compound = "CN1C(=O)OCC1/C=C/c1csc(NC(=O)c2cccn2Cc2ccncc2)n1 (stereo not shown)"
result = "0.34%"

[[record]]
compound = "CC(C(N)=O)n1cnc(/C=C/c2csc(NC(=O)c3cccn3Cc3ccnc(F)c3)n2)c1 (stereo not shown)"
result = "68.2%"

[[record]]
compound = "CC(=O)N1CCC(Oc2ccc(N3CCC[C@@H]3c3csc(NC(=O)c4cccn4Cc4ccncc4)n3)cc2)CC1"
result = "39.9%"

[[record]]
compound = "O=C(Nc1nc(/C=C/[C@@H]2CCCCN2)cs1)c1cccn1Cc1ccncc1"
result = "33.5%"

[[record]]
compound = "CC(C#N)n1cnc(/C=C/c2csc(NC(=O)c3cccn3Cc3ccnc(F)c3)n2)c1 (stereo not shown)"
result = "35.4%"

[[record]]
compound = "C[C@@H](CC#N)Cn1cccc1C(=O)Nc1nc([C@H]2CCCN2c2ccccc2)cs1"
result = "14.2%"


Liver Microsome Stability (Multiple Species): Mouse - % Remaining after 30 min w/NADPH reported for this compound `O=C(Nc1nc(C#Cc2ccccn2)cs1)c1cccn1Cc1ccncc1` : 2.41%

Liver Microsome Stability (Multiple Species): Mouse - % Remaining after 30 min w/NADPH reported for this compound `N#CCC1(Cn2cccc2C(=O)Nc2nc([C@H]3CCCN3c3ccccc3)cs2)COC1` : 3.48%

Liver Microsome Stability (Multiple Species): Mouse - % Remaining after 30 min w/NADPH reported for this compound `COc1ccc(O[C@H]2CC[C@H](c3csc(NC(=O)c4cccn4Cc4ccncc4)n3)CC2)nc1` : 0.06%

Liver Microsome Stability (Multiple Species): Mouse - % Remaining after 30 min w/NADPH reported for this compound CC1=NC(C)(/C=C/c2csc(NC(=O)c3cccn3Cc3ccncc3)n2)CO1 (stereo not shown) : 196%

Liver Microsome Stability (Multiple Species): Mouse - % Remaining after 30 min w/NADPH reported for this compound `O=C(Nc1nc([C@H]2CCCN2c2ccccc2)cs1)c1cccn1CCc1nnn[nH]1` : 26.7%

Liver Microsome Stability (Multiple Species): Mouse - % Remaining after 30 min w/NADPH reported for this compound `O=C(Nc1nc(/C=C/c2ccon2)cs1)c1cccn1Cc1ccncc1` : 1.26%

Liver Microsome Stability (Multiple Species): Mouse - % Remaining after 30 min w/NADPH reported for this compound `CC(C)c1ccc(/C=C/c2csc(NC(=O)c3cccn3Cc3cccnc3)n2)nc1` : 0.11%

Liver Microsome Stability (Multiple Species): Mouse - % Remaining after 30 min w/NADPH reported for this compound `CC(C)n1cc(/C=C/c2csc(NC(=O)c3cccn3Cc3ccnc(F)c3)n2)nc1CO` : 28.7%
